Conditions: buffer; pH 7.4; 200.0 µM
Listed next: entries and their corresponding solubility kinetic.

[
  {
    "compound": "O=C(NCc1cccnc1)NC1CC(=O)N(c2ccc3c(c2)OCCO3)C1 (configuration not stated)",
    "solubility kinetic": "> 55.3 µg/mL"
  },
  {
    "compound": "O=S(=O)(c1ccc(F)cc1)N1CCN(c2ccc(F)cc2)CC1",
    "solubility kinetic": "0.5 µg/mL"
  },
  {
    "compound": "Cc1ccsc1C(=O)NCc1ccc(Cl)cc1",
    "solubility kinetic": "1.8 µg/mL"
  },
  {
    "compound": "O=C(COC(=O)c1ccc(Cl)nc1)NCCC1=CCCCC1",
    "solubility kinetic": "36.6 µg/mL"
  },
  {
    "compound": "CCOC(=O)c1nc(-c2ccccc2)sc1C(C)=O",
    "solubility kinetic": "35.9 µg/mL"
  },
  {
    "compound": "O=C(CC1CCCCC1)NCc1ccc(F)cc1",
    "solubility kinetic": "20.7 µg/mL"
  },
  {
    "compound": "COC(=O)C(NC(C)=O)(Nc1ccc(C)cn1)C(F)(F)F (configuration not stated)",
    "solubility kinetic": "> 45.8 µg/mL"
  },
  {
    "compound": "Cc1ccccc1C(=O)c1cccn1CC(=O)NCc1ccccc1",
    "solubility kinetic": "12.7 µg/mL"
  },
  {
    "compound": "COc1ccc(NC(=O)c2c(N)no[n+]2[O-])c(OC)c1",
    "solubility kinetic": "1.5 µg/mL"
  },
  {
    "compound": "COc1ccc(CNc2ncnc3sccc23)cc1OC",
    "solubility kinetic": "20.2 µg/mL"
  },
  {
    "compound": "O=[N+]([O-])c1ccc2nc(-c3cccnc3)[nH]c2c1",
    "solubility kinetic": "> 36 µg/mL"
  },
  {
    "compound": "O=C(c1cc(-c2ccc(O)cc2)on1)N1CCOCC1",
    "solubility kinetic": "> 41.1 µg/mL"
  }
]

----------
Listed next: entries and their corresponding solubility kinetic.
Conditions: buffer; pH 7.4; 200.0 µM
measure-name: solubility kinetic (µg/mL)

[
  {
    "compound": "Cc1ccc(-c2ccc(C#N)c(=O)n2CC(=O)N(C)C)cc1",
    "measure-name": "solubility kinetic",
    "result-operator": "=",
    "readout-value": 3.3
  },
  {
    "compound": "COc1ccc(C(=O)O/N=C(\\N)c2ccc(Cl)cc2)cc1",
    "measure-name": "solubility kinetic",
    "result-operator": "=",
    "readout-value": 0.4
  },
  {
    "compound": "Cc1cc(C=O)c(C)n1-c1ccc(NC2CCCC2)c([N+](=O)[O-])c1",
    "measure-name": "solubility kinetic",
    "result-operator": "=",
    "readout-value": 5.1
  },
  {
    "compound": "CCN(CC(=O)NCc1cccs1)C(=O)Cc1ccc(C)c(C)c1",
    "measure-name": "solubility kinetic",
    "result-operator": ">",
    "readout-value": 51.7
  },
  {
    "compound": "CC(=O)Nc1cc2c3c(c1)CCC(=O)N3CCC2",
    "measure-name": "solubility kinetic",
    "result-operator": ">",
    "readout-value": 36.6
  },
  {
    "compound": "S=C(CN1CCCC1=S)NCCc1ccccc1",
    "measure-name": "solubility kinetic",
    "result-operator": ">",
    "readout-value": 41.8
  },
  {
    "compound": "CSc1ccc(/C=C2\\NC(=O)NC2=O)cc1",
    "measure-name": "solubility kinetic",
    "result-operator": "=",
    "readout-value": 9.8
  },
  {
    "compound": "O=C(/C=C/c1ccccc1)NC(=S)Nc1ccccc1",
    "measure-name": "solubility kinetic",
    "result-operator": "<",
    "readout-value": 0.3
  },
  {
    "compound": "CC(NC(=O)CCC(=O)c1ccc(F)cc1)C1CC2CCC1C2 (configuration not stated)",
    "measure-name": "solubility kinetic",
    "result-operator": "=",
    "readout-value": 12.5
  },
  {
    "compound": "Cc1cc(Br)ccc1NC(=S)NC1CCCC1",
    "measure-name": "solubility kinetic",
    "result-operator": "=",
    "readout-value": 19.1
  },
  {
    "compound": "CCOC(=O)C1(CCOc2ccccc2)CCN(CC2CC2)CC1",
    "measure-name": "solubility kinetic",
    "result-operator": "=",
    "readout-value": 45.7
  },
  {
    "compound": "COc1cccc(NC(=O)CN(C)C(=O)C2=COCCO2)c1",
    "measure-name": "solubility kinetic",
    "result-operator": "=",
    "readout-value": 43.1
  }
]
